target: human B1R receptor (hB1R) (Homo sapiens); construct: host or cells: CHO K1 cells; assay: FLIPR Ca2+ assay on human bradykinin 1 receptor (CHO K1 hB1R cells); format: cell-based; settings: test substance 10 μM; CHO K1 cells with human B1R gene; agonist Lys-Des-Arg9-bradykinin 0.5 nM; compared to maximum achievable inhibition
Sequence (P46663 whole entry): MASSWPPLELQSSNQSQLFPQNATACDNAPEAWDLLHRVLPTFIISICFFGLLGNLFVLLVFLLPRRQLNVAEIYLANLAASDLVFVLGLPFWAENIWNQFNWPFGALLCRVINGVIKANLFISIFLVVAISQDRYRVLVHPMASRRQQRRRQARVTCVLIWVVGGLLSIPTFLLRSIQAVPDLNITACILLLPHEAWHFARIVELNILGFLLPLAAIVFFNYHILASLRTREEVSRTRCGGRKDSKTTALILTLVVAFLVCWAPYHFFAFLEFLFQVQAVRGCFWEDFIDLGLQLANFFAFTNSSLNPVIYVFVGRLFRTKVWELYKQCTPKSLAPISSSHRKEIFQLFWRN
quantity_name: inhibition at 10 µM (%)
Give a bare numeral; the unit % is implied.

Enquiry: Item: COc1cc(C)c(S(=O)(=O)N(C)CCOCC(=O)N2CCn3cccc3C2c2cccs2)c(C)c1C (stereo not shown) Test system: human B1R receptor (hB1R) (Homo sapiens) Read-out: inhibition at 10 µM Value: ?
Return: 101
